assay_target: Genome polyprotein (Hu/NV/NV/1968/US, UniProt Q83883)
Sequence (Q83883 whole entry): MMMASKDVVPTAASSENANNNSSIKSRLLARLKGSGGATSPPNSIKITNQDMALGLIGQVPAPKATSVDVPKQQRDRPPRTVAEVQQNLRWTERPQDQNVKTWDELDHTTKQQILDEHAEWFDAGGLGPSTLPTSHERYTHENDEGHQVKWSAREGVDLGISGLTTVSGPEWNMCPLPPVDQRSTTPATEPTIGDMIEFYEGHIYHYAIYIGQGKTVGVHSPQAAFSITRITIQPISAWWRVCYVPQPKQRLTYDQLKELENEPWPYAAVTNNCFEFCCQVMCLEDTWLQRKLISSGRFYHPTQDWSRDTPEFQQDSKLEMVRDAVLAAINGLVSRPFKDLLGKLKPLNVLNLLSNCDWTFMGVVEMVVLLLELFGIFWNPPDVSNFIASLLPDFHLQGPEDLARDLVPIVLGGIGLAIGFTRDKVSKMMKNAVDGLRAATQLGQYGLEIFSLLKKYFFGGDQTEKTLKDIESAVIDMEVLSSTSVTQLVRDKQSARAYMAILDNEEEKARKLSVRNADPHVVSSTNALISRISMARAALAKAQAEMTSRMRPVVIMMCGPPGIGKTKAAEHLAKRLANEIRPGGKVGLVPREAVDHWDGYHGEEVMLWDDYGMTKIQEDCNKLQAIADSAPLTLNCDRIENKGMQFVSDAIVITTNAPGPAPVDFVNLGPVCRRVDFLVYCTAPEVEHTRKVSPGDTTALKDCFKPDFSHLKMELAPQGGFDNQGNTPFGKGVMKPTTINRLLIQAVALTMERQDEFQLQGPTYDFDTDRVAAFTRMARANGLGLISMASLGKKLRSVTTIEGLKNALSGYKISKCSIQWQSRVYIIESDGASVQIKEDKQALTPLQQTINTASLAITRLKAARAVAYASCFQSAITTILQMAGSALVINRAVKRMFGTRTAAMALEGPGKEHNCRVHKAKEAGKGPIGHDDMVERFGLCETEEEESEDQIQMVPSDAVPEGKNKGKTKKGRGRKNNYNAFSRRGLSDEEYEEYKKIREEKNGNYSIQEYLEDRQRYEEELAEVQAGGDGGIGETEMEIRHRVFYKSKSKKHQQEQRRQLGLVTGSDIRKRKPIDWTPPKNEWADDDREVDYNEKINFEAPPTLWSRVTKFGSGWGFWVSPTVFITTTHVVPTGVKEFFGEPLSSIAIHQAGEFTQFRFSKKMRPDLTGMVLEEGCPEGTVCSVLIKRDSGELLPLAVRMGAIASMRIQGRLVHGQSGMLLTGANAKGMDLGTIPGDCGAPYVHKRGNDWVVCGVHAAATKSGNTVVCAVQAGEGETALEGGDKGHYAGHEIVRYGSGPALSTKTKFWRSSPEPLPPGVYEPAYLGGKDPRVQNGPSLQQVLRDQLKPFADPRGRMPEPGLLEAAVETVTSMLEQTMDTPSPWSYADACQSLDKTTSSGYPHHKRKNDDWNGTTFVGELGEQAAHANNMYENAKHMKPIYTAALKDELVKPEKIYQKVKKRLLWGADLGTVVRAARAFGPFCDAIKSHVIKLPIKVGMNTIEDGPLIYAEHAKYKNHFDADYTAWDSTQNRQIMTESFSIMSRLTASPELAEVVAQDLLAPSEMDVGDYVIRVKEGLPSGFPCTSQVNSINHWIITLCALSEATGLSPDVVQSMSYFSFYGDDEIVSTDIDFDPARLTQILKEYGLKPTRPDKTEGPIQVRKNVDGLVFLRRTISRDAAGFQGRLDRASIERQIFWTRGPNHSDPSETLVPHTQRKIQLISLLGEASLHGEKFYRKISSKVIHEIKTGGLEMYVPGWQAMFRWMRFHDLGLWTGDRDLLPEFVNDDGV
measurement_description: Fret Assay
pKi: −log10 of the molar value.
quantity_measured: pKi

>>> recorded_number("CC(C)C[C@H](NC(=O)[C@H](Cc1ccc(O)cc1)NC(=O)OCc1ccccc1)C(=O)N[C@H](C=O)C[C@@H]1CCCNC1=O")
6.91
>>> recorded_number("CC(C)C[C@H](NC(=O)[C@H](Cc1cccc2ccccc12)NC(=O)OCc1ccccc1)C(=O)N[C@H](C=O)C[C@@H]1CCCNC1=O")
6.81
>>> recorded_number("CC(C)C[C@H](NC(=O)[C@H](Cc1cccc2ccccc12)NC(=O)c1cnccn1)C(=O)N[C@H](C=O)C[C@@H]1CCCNC1=O")
6.28
>>> recorded_number("CC(C)C[C@H](NC(=O)[C@H](Cc1cccc2ccccc12)NC(=O)c1cnccn1)C(=O)N[C@H](C=O)C[C@@H]1CCNC1=O")
6.46

###

Quick record: pIC50, Genome polyprotein (Hu/NV/NV/1968/US, UniProt Q83883).
pIC50: −log10 of the molar value.
quantity_measured: pIC50

>>> recorded_number("CC(C)C[C@H](NC(=O)[C@H](Cc1cccc2ccccc12)NC(=O)c1cnccn1)C(=O)N[C@H](C=O)C[C@@H]1CCNC1=O [US11859014, Compound 29]")
6.95
>>> recorded_number("CC(C)C[C@H](NC(=O)[C@H](Cc1ccc(O)cc1)NC(=O)OCc1ccccc1)C(=O)N[C@H](C=O)C[C@@H]1CCCNC1=O [US11859014, Compound 11]")
7.36
>>> recorded_number("CC(C)C[C@H](NC(=O)[C@H](Cc1cccc2ccccc12)NC(=O)OCc1ccccc1)C(=O)N[C@H](C=O)C[C@@H]1CCCNC1=O [US11859014, Compound 19]")
7.10
>>> recorded_number("CC(C)C[C@H](NC(=O)[C@H](Cc1cccc2ccccc12)NC(=O)c1cnccn1)C(=O)N[C@H](C=O)C[C@@H]1CCCNC1=O [US11859014, Compound 23]")
7.02

###

Genome polyprotein (Norovirus Hu/GII.P4_GII.4/Minerva/2006/USA, UniProt A0A0K2E2J2) Ki data
Sequence (A0A0K2E2J2 whole entry): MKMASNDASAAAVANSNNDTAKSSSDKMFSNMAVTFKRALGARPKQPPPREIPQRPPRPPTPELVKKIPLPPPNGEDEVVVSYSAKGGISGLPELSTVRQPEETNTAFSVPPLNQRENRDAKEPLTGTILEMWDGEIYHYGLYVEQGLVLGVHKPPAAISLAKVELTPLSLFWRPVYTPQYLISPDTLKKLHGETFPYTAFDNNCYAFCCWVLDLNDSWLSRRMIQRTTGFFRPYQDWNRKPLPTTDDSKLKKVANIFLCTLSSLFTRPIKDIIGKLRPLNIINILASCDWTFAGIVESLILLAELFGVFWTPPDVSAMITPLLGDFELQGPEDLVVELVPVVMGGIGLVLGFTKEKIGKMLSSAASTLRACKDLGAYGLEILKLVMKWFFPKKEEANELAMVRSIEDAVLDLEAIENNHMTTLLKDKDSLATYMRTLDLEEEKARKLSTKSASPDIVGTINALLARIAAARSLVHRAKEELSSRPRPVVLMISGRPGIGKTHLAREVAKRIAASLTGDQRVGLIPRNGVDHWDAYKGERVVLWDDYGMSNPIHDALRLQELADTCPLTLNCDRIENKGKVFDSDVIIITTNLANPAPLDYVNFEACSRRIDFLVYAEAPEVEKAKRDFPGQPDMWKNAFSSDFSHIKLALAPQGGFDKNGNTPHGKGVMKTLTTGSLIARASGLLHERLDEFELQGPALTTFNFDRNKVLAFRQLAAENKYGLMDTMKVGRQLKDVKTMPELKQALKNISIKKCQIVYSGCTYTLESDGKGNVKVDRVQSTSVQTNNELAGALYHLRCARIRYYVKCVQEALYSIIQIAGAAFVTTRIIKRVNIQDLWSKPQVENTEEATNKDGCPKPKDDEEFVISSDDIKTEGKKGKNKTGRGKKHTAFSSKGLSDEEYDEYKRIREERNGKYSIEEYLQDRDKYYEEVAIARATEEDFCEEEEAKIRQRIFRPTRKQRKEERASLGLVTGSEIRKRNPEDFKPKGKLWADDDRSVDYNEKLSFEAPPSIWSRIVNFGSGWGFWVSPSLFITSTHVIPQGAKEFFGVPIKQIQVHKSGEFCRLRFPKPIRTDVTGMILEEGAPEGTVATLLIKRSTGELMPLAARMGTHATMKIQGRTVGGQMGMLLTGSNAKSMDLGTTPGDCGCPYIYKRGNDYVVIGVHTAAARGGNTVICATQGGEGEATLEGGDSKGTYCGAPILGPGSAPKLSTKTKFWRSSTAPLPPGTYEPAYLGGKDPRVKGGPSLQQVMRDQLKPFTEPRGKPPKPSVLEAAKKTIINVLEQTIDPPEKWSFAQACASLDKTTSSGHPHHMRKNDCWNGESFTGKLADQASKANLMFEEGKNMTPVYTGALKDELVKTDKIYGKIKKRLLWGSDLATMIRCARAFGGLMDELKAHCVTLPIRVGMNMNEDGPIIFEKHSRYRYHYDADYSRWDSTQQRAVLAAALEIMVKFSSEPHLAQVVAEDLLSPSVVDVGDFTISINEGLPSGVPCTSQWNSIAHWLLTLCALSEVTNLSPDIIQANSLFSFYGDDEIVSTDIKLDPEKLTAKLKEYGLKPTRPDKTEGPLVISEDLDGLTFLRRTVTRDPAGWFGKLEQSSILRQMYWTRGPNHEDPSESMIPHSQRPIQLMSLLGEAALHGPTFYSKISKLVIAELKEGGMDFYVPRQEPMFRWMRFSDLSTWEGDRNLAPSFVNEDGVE
quantity_measured: Ki

>>> result("CCOC(=O)/C=C/[C@H](C[C@@H]1CCNC1=O)NC(=O)[C@@H](CC(=O)[C@@H](NC(=O)c1cc(C)on1)C(C)C)Cc1ccc(F)cc1")
"8200 nM"
>>> result("CC(C)C[C@H](NC(=O)[C@H](Cc1ccc(O)cc1)NC(=O)OCc1ccccc1)C(=O)N[C@H](C=O)C[C@@H]1CCCNC1=O")
"427 nM"
>>> result("CC(C)C[C@H](NC(=O)[C@H](Cc1cccc2ccccc12)NC(=O)c1cnccn1)C(=O)N[C@H](C=O)C[C@@H]1CCNC1=O")
"670 nM"
>>> result("CC(C)C[C@H](NC(=O)[C@H](Cc1ccc(F)cc1)NC(=O)OCc1ccccc1)C(=O)N[C@H](C=O)C[C@@H]1CCCNC1=O")
"858 nM"
>>> result("CC(C)C[C@H](NC(=O)[C@H](Cc1cccc2ccccc12)NC(=O)OCc1ccccc1)C(=O)N[C@H](/C=C(\\C#N)C(N)=O)C[C@@H]1CCCNC1=O")
"3600 nM"
>>> result("CC(C)C[C@H](NC(=O)[C@H](Cc1cccc2ccccc12)NC(=O)OCc1ccccc1)C(=O)N[C@H](C=O)C[C@@H]1CCCNC1=O")
"1190 nM"

These measurements were taken from BindingDB's records for patent US11859014.
